This listing pairs binders with measured FXa assay OD, 10 nM Ab, 10 nM TFPI.
SUBJECT OF TEST: recombinant human TFPI (tissue factor pathway inhibitor) (human, UniProt P10646 29-304)
ASSAY EXPLANATION: cell-based or functional assay
REPORTED METRIC: FXa assay OD, 10 nM Ab, 10 nM TFPI

clone 1238 (antibody, V domains shown) VH: EVQLVESGGGLVKPGGSLRLSCAASGFTFSSYAMNWVRQAPGKGLEWVSTITTGGSYTYYADSVEGRFTISRDNAKNSLYLQMNSLRAEDTAVYYCARQDGHFLMDYWGQGTLVTVSS VL: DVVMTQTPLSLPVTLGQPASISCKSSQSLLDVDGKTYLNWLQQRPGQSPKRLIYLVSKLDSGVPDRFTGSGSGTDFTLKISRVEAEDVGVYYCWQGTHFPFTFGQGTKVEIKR; 0.0485
clone 1023 (antibody, V domains shown, scFv on yeast at selection; human IgG4/kappa IgG as purified) VH: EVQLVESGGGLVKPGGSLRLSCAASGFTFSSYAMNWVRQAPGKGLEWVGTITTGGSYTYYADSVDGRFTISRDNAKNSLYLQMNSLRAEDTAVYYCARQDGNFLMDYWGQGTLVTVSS VL: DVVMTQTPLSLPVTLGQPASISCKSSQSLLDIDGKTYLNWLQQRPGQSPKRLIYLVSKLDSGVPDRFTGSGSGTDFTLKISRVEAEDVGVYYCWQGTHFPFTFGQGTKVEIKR; 0.459
clone 1214 (antibody, V domains shown) VH: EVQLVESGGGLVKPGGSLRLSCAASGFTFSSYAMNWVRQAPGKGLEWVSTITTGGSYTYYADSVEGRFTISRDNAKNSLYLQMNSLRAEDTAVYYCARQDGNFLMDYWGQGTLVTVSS VL: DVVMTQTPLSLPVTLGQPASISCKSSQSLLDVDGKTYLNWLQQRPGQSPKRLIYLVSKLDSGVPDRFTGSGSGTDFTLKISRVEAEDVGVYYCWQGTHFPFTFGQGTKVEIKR; 0.545
clone 1224 (antibody, V domains shown) VH: EVQLVESGGGLVKPGGSLRLSCAASGFTFSSYAMSWVRQAPGKGLEWVSTITTGGSYTYYADSVDGRFTISRDNAKNSLYLQMNSLRAEDTAVYYCARQDGNFLMDYWGQGTLVTVSS VL: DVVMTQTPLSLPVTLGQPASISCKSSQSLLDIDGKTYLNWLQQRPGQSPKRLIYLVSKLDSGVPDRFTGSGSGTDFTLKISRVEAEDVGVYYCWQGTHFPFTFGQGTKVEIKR; 0.252
